test: Quantitative High-Throughput drug screen in 47 multiple myeloma cell lines against the NCATS MIPE library collection: KMS28BM_JCRB cell viability assay (AID 1919874); conditions: CellTiter-Glo ATP, 48 h; series mostly up to 45.8 µM; note: nearly all actives have a fitted effect of over 35% in size
Results filed as inconclusive are left out. Calls of active or inactive are those of the source. Calls come from the whole dose curve; as a rule, active = well fitted cell-killing curve with a large enough effect; inconclusive = small, poorly fitted or top-dose-only effect, or effect the other way; inactive = no such curve, though single readings can be large or run the other way.
Please state which outcome applies, choosing from active, inactive

What outcome does the record of this test show for `COC(=O)Nc1nc2ccc(Sc3ccccc3)cc2[nH]1` ?
active

And what about the compound `COc1nc(N)nc2c1ncn2[C@@H]1O[C@H](CO)[C@@H](O)[C@@H]1O` ?
inactive

And what about the compound `CC1(C)[C@H](C(=O)O)N2C(=O)C[C@H]2S1(=O)=O` ?
inactive

And what about the compound `Nc1nc(=S)c2[nH]cnc2[nH]1` ?
active

And what about the compound `CCCc1cc(C(N)=S)ccn1` ?
inactive

----------
assay: Natriuretic polypeptide receptor (hNpr1) antagonism - Pilot counterscreen GloSensor control cell line (AID 1347045); conditions: HEK293 cGMP GloSensor cells, SNP-stimulated luminescence, 20 min; series mostly up to 38.3 µM
Inconclusive results are not listed. Activity calls are given as the source filed them. Calls follow the shape of the full dose curve.
Please state which outcome applies, choosing from active, inactive

# compound, class
rows = [
    ("NC(=O)c1cccc(N)c1", "inactive"),
    ("OCc1ccc(-c2nn(Cc3ccccc3)c3ccccc23)o1", "inactive"),
    ("COc1cc2ncnc(Nc3cccc(Cl)c3)c2cc1OC", "inactive"),
    ("Nc1nc(N)c2nc(CNc3ccc(C(=O)NC(CCC(=O)O)C(=O)O)cc3)cnc2n1 (configuration not stated)", "inactive"),
    ("CC(C)NCC(O)c1ccc(NS(C)(=O)=O)cc1 (configuration not stated)", "inactive"),
]

What outcome does the record of this test show for `NC(=O)c1ccc2[nH]ccc2c1` ?
inactive

And what about the compound `Cc1ccc(S(=O)(=O)N[C@@H](Cc2ccccc2)C(=O)CCl)cc1` ?
active

----------
test: qHTS drug screen for cell cycle checkpoint inhibitors in PARPi-resistant BRCA-mutant ovarian cancer cell lines. (AID 1963452); conditions: PEO1/OlaR viability, CellTiter-Glo luminescence, 96 h; measured here: PEO1 parental Z-AUC; stronger effect = lower value
Catalogue of Z-AUC values
Give your answer as a number; write no unit.

Look up Z-AUC: `COc1cc([C@@H]2c3cc4c(cc3[C@H](O)[C@H]3COC(=O)[C@H]23)OCO4)cc(OC)c1OC`
-1.81

And what about the compound `O=C(O)c1cn(C2CC2)c2cc(N3CCNCC3)c(F)cc2c1=O` ?
0.154

And what about the compound `CNC(=O)c1cc(Oc2ccc(NC(=O)Nc3ccc(Cl)c(C(F)(F)F)c3)cc2)ccn1` ?
0.309

And what about the compound `COC(c1ccccc1)(c1ccccc1)[C@H](Oc1nc(C)cc(C)n1)C(=O)O` ?
1.24

And what about the compound `COC(=O)Nc1nc2ccc(C(=O)c3ccccc3)cc2[nH]1` ?
-1.51

And what about the compound `NC(=O)c1ccc2[nH]ccc2c1` ?
-0.451

----------
test: qHTS profiling of the MIPE4 collection as inhibitors of Plasmodium falciparum (DD2) proliferation (Rep 2) (AID 743346); conditions: P. falciparum Dd2 in erythrocytes, SYBR Green DNA, 72 h; at 28.5 µM (top of the series) unless noted
Catalogue of parasite growth, % of control (lower = inhibition) values
Just the number plus its unit, please.

# structureNotation, dataValue
data = [
    ("Cc1cccc(N(C)C(=S)Oc2ccc3ccccc3c2)c1", "51.6%"),
    ("COc1ccc2cc3[n+](cc2c1OC)CCc1cc2c(cc1-3)OCO2", "13.4%"),
]

Look up parasite growth, % of control (lower = inhibition): `CC[C@H](NC(C)C)[C@H](O)c1ccc(O)c2[nH]c(=O)ccc12`
92.5%
